Source: BigSolDB 2.1

# Measurement context: in DMF, 318.15 K
Property: solubility (mole fraction)

[
  {
    "Given smiles": "O=C(O)Cc1ccc([N+](=O)[O-])cc1",
    "Recorded result": 0.342
  }
]

* * *

# Measurement context: in DMAc, 328.15 K
Property: solubility (mole fraction)

[
  {
    "Given smiles": "O=C(O)Cc1ccc([N+](=O)[O-])cc1",
    "Recorded result": 0.271
  }
]

* * *

# Measurement context: in isopropanol, 318.15 K

[
  {
    "Given smiles": "O=C(O)Cc1ccc([N+](=O)[O-])cc1",
    "solubility (mole fraction)": 0.0914
  }
]
